- Target: Peroxisome proliferator-activated receptor delta (Homo sapiens, UniProt Q03181)
- Sequence (Q03181 whole entry): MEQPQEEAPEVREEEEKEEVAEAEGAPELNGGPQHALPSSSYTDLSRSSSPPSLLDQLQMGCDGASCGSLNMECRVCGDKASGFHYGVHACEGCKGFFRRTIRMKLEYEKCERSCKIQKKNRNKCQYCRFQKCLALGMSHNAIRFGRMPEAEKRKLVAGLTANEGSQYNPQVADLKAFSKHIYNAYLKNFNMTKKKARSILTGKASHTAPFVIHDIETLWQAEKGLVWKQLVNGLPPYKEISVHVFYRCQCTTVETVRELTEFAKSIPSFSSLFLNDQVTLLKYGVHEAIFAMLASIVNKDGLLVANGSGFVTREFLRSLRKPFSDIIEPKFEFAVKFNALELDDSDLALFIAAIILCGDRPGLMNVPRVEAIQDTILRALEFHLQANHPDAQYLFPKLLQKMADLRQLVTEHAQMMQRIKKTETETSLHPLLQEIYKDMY
- Procedure Details: Effective concentration for human peroxisome proliferator-activated receptor delta
Define the label as MET when EC50 is strictly less than 7 µM and as NOT MET in all remaining cases.

Below 7 µM on EC50? Entry "CCO[C@H](Cc1ccc(OC/C=C(\C)c2ccc(-c3ccc(/C(C)=C/COc4ccc(C[C@@H](OCC)C(=O)O)cc4)cc3)cc2)cc1)C(=O)O"
MET

Below 7 µM on EC50? Entry CCOC(Cc1ccc(OCC/C=C/c2ccccc2)cc1)C(=O)O (single isomer, unassigned)
NOT MET

Below 7 µM on EC50? Entry CCOC(Cc1ccc(OC/C=C/c2ccccc2)cc1)C(=O)O (single isomer, unassigned)
NOT MET

Below 7 µM on EC50? Entry CCOC(Cc1ccc(OC/C=C/C#Cc2ccc(C#C/C=C/COc3ccc(C[C@@H](OCC)C(=O)O)cc3)cc2)cc1)C(=O)O (single isomer, unassigned)
MET

Below 7 µM on EC50? Entry CCOC(Cc1ccc(OC/C=C/C#CC#C/C=C/COc2ccc(C[C@@H](OCC)C(=O)O)cc2)cc1)C(=O)O (single isomer, unassigned)
NOT MET

Below 7 µM on EC50? Entry "CCO[C@@H](Cc1ccc(OC/C=C(/C)C#Cc2ccccc2)cc1)C(=O)O"
NOT MET

Below 7 µM on EC50? Entry CCOC(Cc1ccc(OC/C=C(\C)C#Cc2ccc(C#C/C(C)=C/COc3ccc(C[C@@H](OCC)C(=O)O)cc3)cc2)cc1)C(=O)O (single isomer, unassigned)
MET

Moving on to the next compound.
Below 7 µM on EC50? Entry "CCO[C@H](Cc1ccc(OC/C=C(/C)C#Cc2ccc(-c3ccc(C#C/C(C)=C/COc4ccc(C[C@@H](OCC)C(=O)O)cc4)cc3)cc2)cc1)C(=O)O"
MET
